# testedOn: HRgpA-6H (Porphyromonas gingivalis) (UniProt P28784)
# methodSummary: ELISA on coated HRgpA-6H
measuredEndpoint: Ratio OD(Variant)/OD(WT)
// return a plain number; no unit text

- binder: "KB001 mouse Fab FASEBA VH Y106T (Fab, V domains shown) VH: EVQLKQSGPGLVAPSQSLSITCTVSGFSLSIYSVHWVRQPPGKGLEWLGMIWGGGSSDYNSALKSRLSISKDNSKSQVFLKMNSLQTDDTAMYYCARNGNFYAMDTWGQGTSVTVSS VL: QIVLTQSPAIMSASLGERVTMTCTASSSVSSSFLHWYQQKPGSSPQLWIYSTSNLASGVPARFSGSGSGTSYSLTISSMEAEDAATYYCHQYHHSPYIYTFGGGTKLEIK"
  Ratio OD(Variant)/OD(WT): 1.07

Okay, next one:
## Input Return reported Ratio OD(Variant)/OD(WT); argument: KB001 mouse Fab FASEBA VH S57R (Fab, V domains shown) VH: EVQLKQSGPGLVAPSQSLSITCTVSGFSLSIYSVHWVRQPPGKGLEWLGMIWGGGSRDYNSALKSRLSISKDNSKSQVFLKMNSLQTDDTAMYYCARNGNFYAMDYWGQGTSVTVSS VL: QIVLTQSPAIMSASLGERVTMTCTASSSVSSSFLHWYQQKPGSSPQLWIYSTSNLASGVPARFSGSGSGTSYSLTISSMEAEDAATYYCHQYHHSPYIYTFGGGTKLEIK
## Output 0.905
